Hello, the source for this data is BindingDB's records for patent US20240189315, in case you need it.

Recorded below: pIC50, system UniProt Q8N884.
Sequence (Q8N884 whole entry): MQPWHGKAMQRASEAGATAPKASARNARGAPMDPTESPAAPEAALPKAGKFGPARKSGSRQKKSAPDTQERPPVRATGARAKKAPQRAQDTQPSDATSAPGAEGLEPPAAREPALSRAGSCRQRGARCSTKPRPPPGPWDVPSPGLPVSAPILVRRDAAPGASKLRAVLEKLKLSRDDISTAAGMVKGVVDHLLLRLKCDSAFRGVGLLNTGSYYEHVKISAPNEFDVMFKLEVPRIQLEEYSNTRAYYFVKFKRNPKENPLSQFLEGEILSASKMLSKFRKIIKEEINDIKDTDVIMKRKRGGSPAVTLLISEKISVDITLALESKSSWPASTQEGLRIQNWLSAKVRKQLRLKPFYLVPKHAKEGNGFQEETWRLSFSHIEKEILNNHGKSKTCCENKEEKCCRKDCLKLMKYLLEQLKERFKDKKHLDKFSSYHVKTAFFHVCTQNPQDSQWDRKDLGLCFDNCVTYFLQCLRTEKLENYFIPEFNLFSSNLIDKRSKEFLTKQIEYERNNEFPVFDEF
pIC50: −log10 of the molar value.

Solved cases below.
The value of pIC50 measured for the compound COC(=O)[C@@H]1C[C@H](Oc2ncc(-c3cccnc3OC)cc2N2CCOC3(COC3)[C@@H]2C)CN1c1nc(C(F)(F)F)nc2c1oc1ccccc12 turned out to be < 5.00

// pIC50 lookup, compound = COC(=O)[C@@H]1C[C@H](Oc2ncc(Cl)cc2[C@@]2(F)CCS(=O)(=O)C[C@@H]2C)CN1c1nc(C(F)F)nc2c1oc1ccccc12 , result: < 5.00

Value of measured pIC50 for the entry COC(=O)[C@@H]1C[C@H](Oc2ncc(Br)cc2N2CCOC3(COC3)[C@@H]2C)CN1c1nc(C(F)(F)F)nc2c1oc1ccccc12 : < 5.00

Continue with the compound presented below.
For C[C@H]1CN2CC[C@]1(F)c1cc(Cl)cnc1O[C@H]1C[C@@H](C(=O)O)N(C1)c1nc(nc3c1oc1ccccc13)CCCCOC2=O the compound record lists pIC50 as 7.57
